- subject-of-test: carbonic anhydrase II (Homo sapiens)
- test-name: Enzyme inhibition, KI versus carbonic anhydrase II (enzymatic micromethod)
- Format: biochemical
- experimental-parameters: 0°
assay-readout: Ki (nM)

query: Recorded Ki of CCOC(=O)C(=O)Nc1nnc(S(N)(=O)=O)s1 [Example 5, Ethyloxaloylazolamide] , please.
result: 32

[a] NS(=O)(=O)c1nnc(N2C(=O)C=CC2=O)s1 [Example 3, Maleimidiazolamide]
[b] NS(=O)(=O)c1nnc(N2C(=O)C(O)C(O)C2=O)s1 (stereo not drawn) [Example 4, Dihydroxysuccinimidazolamide]
query: Could you check which of a and b has a smaller value for Ki? Give the chosen item's label as your response.
result: b
